Here the recorded protein stability index is given for each entry.
B1: ZNF8 (parent)
chain: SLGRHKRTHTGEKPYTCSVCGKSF

variants of: B1; assay: protein stability index of a GFP-peptide fusion (GPS, HEK-293T) (PSI 1-6); higher = more stable; conditions: c terminus: a fixed tail appended;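 also: lentivirally expressed fusions sorted by FACS into six bins by GFP to DsRed ratio, PSI derived from sequencing read proportions per bin multiplied by bin number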
Give a plain numeric answer without units written out.

INSERT INTO measurements (mutationcode, quantitativeresult) VALUES
  ('K6E', 3.29),
  ('F24S', 3.44),
  ('R7T', 2.32),
  ('K6H', 1.97),
  ('S23V', 1.95),
  ('S18M', 2.58);

Q: Fill in the blank: the reported protein stability index of C17I is ____.
Result: 2.38

Q: Fill in the blank: the reported protein stability index of L2T is ____.
Result: 3.12

Q: Fill in the blank: the reported protein stability index of S1K is ____.
Result: 3.05

Q: Fill in the blank: the reported protein stability index of V19A is ____.
Result: 2.36

Q: Fill in the blank: the reported protein stability index of C20T is ____.
Result: 3.44
